Reference source for all entries: PubChem BioAssay (NCI)

test system: U251 CNS; assay: NCI tumour cell line growth inhibition, 48 h
READOUT_NAME: TGI

Cn1c(=O)ccc2c(=O)c3ccccc3oc21; > 100 µM

Entry CC1=N[C@@](C)(C2CC3C=CC2C3=O)COC1=O (stereo partly specified) has what TGI?
> 100 µM

Entry Cn1c(=O)c(Oc2ccc(F)cc2F)cc2cnc(NC3CCOCC3)nc21 has what TGI?
> 25 µM

Entry Cc1cn(Cc2cn(CC3OC(n4cc(C)c(=O)[nH]c4=O)CC3O)nn2)c(=O)[nH]c1=O (stereo unspecified) has what TGI?
> 100 µM

Entry O=C1NC(=NCCc2ccccn2)S/C1=C\c1ccc2ncccc2c1 has what TGI?
> 25 µM

Entry COc1cc(/C=C2\N=C(c3ccccc3)N(c3nc4ccc(Sc5ccccc5)cc4[nH]3)C2=O)cc(OC)c1OC has what TGI?
43.9 µM

---

Recorded TGI, one value per entry.
tested on: OVCAR-3 ovarian; test: NCI tumour cell line growth inhibition, 48 h

Examples from the recorded data:
C=CC(=O)Nc1cccc(Oc2nc(Nc3ccc(N4CCN(C)CC4)cc3OC)ncc2Cl)c1; 4.44 µM
O=C([CH-]C(=O)c1ccccc1)c1ccccc1.O=C([CH-]C(=O)c1ccccc1)c1ccccc1.O=C([CH-]C(=O)c1ccccc1)c1ccccc1.[Cl-].[Hf+4]; > 100 µM
COC(=O)C1[C@H](c2ccc3c(c2)OCO3)OC(=O)[C@]1(C(=O)OC)C(=O)c1ccc(OC)c(OC)c1 (stereo partly drawn); > 100 µM

Entry CC(C)=NNC(=S)NC12CC3CC(CC(C3)C1)C2 has what TGI?
> 100 µM

Entry CCOC(=O)c1sc2nc1CSc1sc(=S)sc1SCc1nc(sc1C(=O)OCC)-c1nc(c(C(=O)OCC)s1)CSc1sc(=S)sc1SCc1nc-2sc1C(=O)OCC has what TGI?
> 10 µM

Entry Cc1ccc(C(=O)N/N=C(\N=Nc2ccccc2Cl)c2ccc(N(C)C)cc2)cc1 has what TGI?
> 100 µM

Entry Cc1ccsc1-c1ccc2c(c1)COC2(CCCN(C)C)c1ccc(F)cc1 (stereo not drawn) has what TGI?
9.02 µM

Entry CCCCCCCCCCOCCOCCOCCOCCCCC(O)CCCCCCCC1=C[C@H](C)OC1=O (stereo partly drawn) has what TGI?
33.8 µM

---

system: HCT-116 colon; experiment: NCI tumour cell line growth inhibition, 48 h
READOUT_NAME: TGI

Examples from the recorded data:
C=CCOC(=O)Nc1cccn([C@H](CC(C)C)C(=O)NCCC(C)C)c1=O; > 100 µM
Cn1c(=O)c(Oc2ccc(F)cc2F)cc2cnc(NC3CCOCC3)nc21; > 25 µM
O=C1CC(N2C(=O)/C(=C/C(Cl)=C\c3ccc([N+](=O)[O-])cc3)SC2=S)C(=O)N1c1ccc(O)cc1 (stereo not given); 2.14 µM
Cc1ccc(S(=O)(=O)OCCOCCOCCOCCOCCOS(=O)(=O)c2ccc(C)cc2)cc1; > 100 µM
CCOC(=O)CN(c1ccccc1)c1nc(=[N+](C)C)ss1; > 100 µM
COc1cc(C2OC[C@@H]3C(=O)OC[C@H]23)cc(O)c1OC (stereo not given in full); > 100 µM
C=C1c2nc3ccccc3n2C=C(c2ccc(Cl)cc2)N1c1ccc(OCCN2CCCCC2)cc1; > 45 µM
O=C1[C@@H](O)[C@@H]2CCCC[C@@]23CCCN13; > 100 µM
Cc1cc2c(cc1Cl)SC(c1ccccc1O)NS2(=O)=O (stereo not given); > 100 µM

# input for lookup
Entry O=C(c1ccccc1)c1nc2ccc(C(F)(F)F)cc2nc1N1CCN(c2ccccc2)CC1 has what TGI?
53.7 µM
